Provenance of the data: patent EP4568957B1

- target-desc: IKZF3 Aiolos (Homo sapiens, UniProt Q96SW2+Q9UKT9)
- Sequence (Q9UKT9 whole entry): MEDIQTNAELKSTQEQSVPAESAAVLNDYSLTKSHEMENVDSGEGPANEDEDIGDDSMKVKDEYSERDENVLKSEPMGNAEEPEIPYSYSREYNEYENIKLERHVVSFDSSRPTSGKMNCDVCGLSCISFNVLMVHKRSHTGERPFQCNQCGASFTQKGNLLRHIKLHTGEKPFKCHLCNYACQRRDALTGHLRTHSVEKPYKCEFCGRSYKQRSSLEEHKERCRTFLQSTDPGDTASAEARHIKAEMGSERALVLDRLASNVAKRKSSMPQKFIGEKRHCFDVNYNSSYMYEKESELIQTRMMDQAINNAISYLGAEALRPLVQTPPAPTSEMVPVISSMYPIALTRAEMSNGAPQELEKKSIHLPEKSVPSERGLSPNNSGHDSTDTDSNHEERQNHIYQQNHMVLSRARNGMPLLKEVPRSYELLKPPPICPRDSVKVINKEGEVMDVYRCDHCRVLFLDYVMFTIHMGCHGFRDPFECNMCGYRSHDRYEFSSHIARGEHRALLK
- Sequence (Q96SW2 whole entry): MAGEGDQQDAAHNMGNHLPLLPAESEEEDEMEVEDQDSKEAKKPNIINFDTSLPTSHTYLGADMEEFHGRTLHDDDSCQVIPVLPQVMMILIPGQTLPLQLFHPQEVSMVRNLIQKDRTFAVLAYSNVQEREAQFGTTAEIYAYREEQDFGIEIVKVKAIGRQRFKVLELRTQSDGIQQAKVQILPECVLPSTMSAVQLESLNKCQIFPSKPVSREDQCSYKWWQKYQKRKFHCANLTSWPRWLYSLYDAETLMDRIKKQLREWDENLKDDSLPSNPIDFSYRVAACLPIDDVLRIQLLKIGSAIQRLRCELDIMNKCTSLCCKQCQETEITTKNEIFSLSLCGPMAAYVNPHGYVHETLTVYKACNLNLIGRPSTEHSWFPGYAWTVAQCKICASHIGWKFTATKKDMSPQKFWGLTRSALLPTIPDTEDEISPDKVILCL
- Sequence (Q16531 whole entry partner): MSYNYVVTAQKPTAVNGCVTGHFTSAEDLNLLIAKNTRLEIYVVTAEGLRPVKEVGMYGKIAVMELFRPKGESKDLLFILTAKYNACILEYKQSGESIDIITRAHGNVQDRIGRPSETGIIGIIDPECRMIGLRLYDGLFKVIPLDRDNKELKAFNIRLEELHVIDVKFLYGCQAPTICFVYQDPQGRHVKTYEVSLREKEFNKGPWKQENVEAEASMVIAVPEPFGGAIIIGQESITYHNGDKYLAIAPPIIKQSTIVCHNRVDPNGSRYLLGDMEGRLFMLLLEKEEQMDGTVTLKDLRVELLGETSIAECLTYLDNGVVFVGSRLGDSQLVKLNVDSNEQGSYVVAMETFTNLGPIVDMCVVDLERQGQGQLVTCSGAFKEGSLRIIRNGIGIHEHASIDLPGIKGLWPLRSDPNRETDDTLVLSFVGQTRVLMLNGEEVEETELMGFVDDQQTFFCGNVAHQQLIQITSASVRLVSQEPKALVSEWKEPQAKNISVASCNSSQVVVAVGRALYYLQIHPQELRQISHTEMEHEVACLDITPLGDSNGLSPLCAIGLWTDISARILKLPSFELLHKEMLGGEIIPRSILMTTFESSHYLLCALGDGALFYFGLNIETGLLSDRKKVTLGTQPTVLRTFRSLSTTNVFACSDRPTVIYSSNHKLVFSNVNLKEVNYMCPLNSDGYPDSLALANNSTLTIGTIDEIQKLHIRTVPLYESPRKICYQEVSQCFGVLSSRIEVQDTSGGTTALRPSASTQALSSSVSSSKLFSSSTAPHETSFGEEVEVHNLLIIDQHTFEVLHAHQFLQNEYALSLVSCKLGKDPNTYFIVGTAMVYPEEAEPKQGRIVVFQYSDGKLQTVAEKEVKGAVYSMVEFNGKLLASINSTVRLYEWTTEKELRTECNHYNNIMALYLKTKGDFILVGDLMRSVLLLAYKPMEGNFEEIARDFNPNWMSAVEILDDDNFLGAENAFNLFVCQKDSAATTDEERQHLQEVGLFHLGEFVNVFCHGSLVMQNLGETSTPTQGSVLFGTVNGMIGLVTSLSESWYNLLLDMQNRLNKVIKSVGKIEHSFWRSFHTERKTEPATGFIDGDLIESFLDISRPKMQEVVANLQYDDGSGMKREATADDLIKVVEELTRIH
- experimental-protocol: Jurkat Cellular Degradation Assay
- Assay type: cell-based
- Set-up: fluorescently labelled antibodies against Helios, Ikaros and Aiolos; endogenous in cells; host or cells: Jurkat cells
- applied-conditions: Jurkat cells, 24 h; 50% reduction of protein vs DMSO alone
# DC50 per record follows
endpoint: DC50

• CO[C@H]1C[C@H](Oc2c(C)cc(-c3ccc(-c4cn(C5CCC(=O)NC5=O)c(=O)o4)c(F)c3)nc2N)C1 (relative stereo) = 2.32 µM
• O=C1CCC(n2cc(-c3ccc(Br)cc3F)oc2=O)C(=O)N1 (stereo not drawn) [Comparative Compound B, reference compound] = > 10 µM
• O=C1CCC(n2cc(-c3ccccc3)oc2=O)C(=O)N1 (stereo not drawn) [Comparative Compound A, reference compound] = > 10 µM
